target: UniProtKB Q9NYK1; assay: TLR7 inhibition reporter assay (HEK-Blue SEAP); format: cell-based; conditions: HEK-Blue cells overexpressing human TLR7, gardiquimod 7.5 μM stimulation, SEAP reporter
Sequence (Q9NYK1 27-1049): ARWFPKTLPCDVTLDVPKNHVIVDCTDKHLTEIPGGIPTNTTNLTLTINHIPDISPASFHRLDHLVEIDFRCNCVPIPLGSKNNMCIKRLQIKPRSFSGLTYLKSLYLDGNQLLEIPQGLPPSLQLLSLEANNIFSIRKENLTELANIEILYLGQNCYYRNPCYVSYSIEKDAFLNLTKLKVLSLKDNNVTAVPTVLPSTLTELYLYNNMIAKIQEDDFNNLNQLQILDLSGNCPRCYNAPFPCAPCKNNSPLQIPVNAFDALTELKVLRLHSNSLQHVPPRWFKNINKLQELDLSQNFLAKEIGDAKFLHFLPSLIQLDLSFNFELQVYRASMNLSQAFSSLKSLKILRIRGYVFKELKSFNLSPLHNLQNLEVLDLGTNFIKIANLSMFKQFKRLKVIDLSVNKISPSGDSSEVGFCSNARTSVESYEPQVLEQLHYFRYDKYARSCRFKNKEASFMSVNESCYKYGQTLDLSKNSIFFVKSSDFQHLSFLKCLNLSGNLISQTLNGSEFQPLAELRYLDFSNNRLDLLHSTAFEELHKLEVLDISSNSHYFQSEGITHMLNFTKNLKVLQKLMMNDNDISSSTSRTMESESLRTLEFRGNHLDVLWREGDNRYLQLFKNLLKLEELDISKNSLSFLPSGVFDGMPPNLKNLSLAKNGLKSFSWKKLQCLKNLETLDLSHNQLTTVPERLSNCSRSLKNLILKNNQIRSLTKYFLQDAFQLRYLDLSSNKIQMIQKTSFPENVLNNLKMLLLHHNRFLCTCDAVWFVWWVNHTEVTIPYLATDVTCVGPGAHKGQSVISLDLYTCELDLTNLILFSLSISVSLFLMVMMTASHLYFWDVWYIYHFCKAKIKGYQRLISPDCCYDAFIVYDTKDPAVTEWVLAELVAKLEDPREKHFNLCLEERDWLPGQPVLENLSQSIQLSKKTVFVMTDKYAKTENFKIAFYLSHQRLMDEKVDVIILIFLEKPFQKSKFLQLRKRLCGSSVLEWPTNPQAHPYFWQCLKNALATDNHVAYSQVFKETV
pIC50: −log10 of the molar value.
quantity-measured: pIC50

The cases that follow already have their pIC50 on record.
>>> observed_measurement("Cc1c(-c2[nH]c3ccc(N4CCN(C(=O)CN5CCC(O)CC5)CC4)nc3c2C(C)C)cn2ncnc2c1C [Example 160]")
8.74
>>> observed_measurement("Cc1c(-c2[nH]c3ccc(C4CCC(NC(C)C)CC4)nc3c2C(C)C)cn2ncnc2c1C (stereo not shown) [Example 358]")
9.02
>>> observed_measurement("CCN(C)C1CCC(c2nc3c(C(C)C)c(-c4cc(OC)c5ncnn5c4)[nH]c3cc2C)CC1 (stereo not shown) [Example 320]")
9.00
>>> observed_measurement("COc1cc(-c2[nH]c3cc(F)c(C4CCC(NC5COC5)CC4)nc3c2C(C)C)cn2ncnc12 (stereo not shown) [Example 345]")
9.68
>>> observed_measurement("Cc1cc(-c2[nH]c3ccc(C4CCC(N5CC6(COC6)C5)CC4)nc3c2C(C)C)cc(C)n1 (stereo not shown) [Example 283]")
9.04

a: CC(C)c1c(-c2cc(CO)c3ncnn3c2)[nH]c2ccc(N3CCC(NCC(=O)N(C)C)CC3)nc12 [Example 84]
b: CC(C)c1c(-c2cc(CO)c3ncnn3c2)[nH]c2ccc(N3CCC(NCC#N)CC3)nc12 [Example 83]
c: CC(C)c1c(-c2cn(C)c3ncccc23)[nH]c2ccc(C3CCC(N(C)CC(=O)N(C)C)CC3)nc12 (stereo not shown) [Example 200]
Query string: Kindly order the items shown according to pIC50, from the highest value down. Quick reminder: the answer is the labels in the order asked.
Result string: c, b, a
(c: 8.74, b: 8.44, a: 5.66)

a: COc1cc(-c2[nH]c3cc(C)c(C4CCC(N(C)CC(C)(C)C)CC4)nc3c2C(C)C)cn2ncnc12 (stereo not shown) [Example 336]
b: CC(C)c1c(-c2cn(C)c3ncccc23)[nH]c2ccc(N3CCC(N(CC#N)CC#N)CC3)nc12 [Example 51]
Query string: // select label with min value of measured pIC50 from [ a , b ] In your reply, give the label of the chosen option.
Result string: b

a: CC(C)c1c(-c2cn(CC#N)c3ncccc23)[nH]c2ccc(C3CCC(NC4CCCOC4)CC3)nc12 (stereo not shown) [Example 274]
b: CNC1CCC(c2ccc3[nH]c(-c4cc(OC)c5ncnn5c4)c(C(C)C)c3n2)CC1 (stereo not shown) [Example 188]
c: Cc1c(-c2[nH]c3ccc(N4CCC(N(C)C5CCOCC5)CC4)nc3c2C(C)C)cn2ncnc2c1C [Example 55]
Query string: Order the records so the highest pIC50 appears first and the lowest last. Labels, ranked as asked.
Result string: b, c, a
